# Assayed Target: DiscI (Discoidin I, isoform A) (Dictyostelium discoideum, UniProt P02886, S2A)
# Sequence (P02886 whole entry S2A, canonical isoform): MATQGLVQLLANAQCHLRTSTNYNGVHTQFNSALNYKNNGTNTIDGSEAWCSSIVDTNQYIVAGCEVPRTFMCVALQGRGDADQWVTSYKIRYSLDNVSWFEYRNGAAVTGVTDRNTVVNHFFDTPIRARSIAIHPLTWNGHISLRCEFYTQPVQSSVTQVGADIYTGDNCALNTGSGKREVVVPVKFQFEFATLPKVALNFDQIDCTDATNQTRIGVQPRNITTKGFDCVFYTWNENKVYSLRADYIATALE
# Experiment Notes: Isothermal titration microcalorimetry
# Assay type: binding
# Conditions Used: ITC, 25 °C
Would you please tag the item label 1 when its -TΔS is 5 kcal/mol or above, and label 0 when it is below?

-TΔS >= 5 kcal/mol for CC(=O)N[C@H]1C(O)O[C@H](CO)[C@@H](O[C@@H]2O[C@H](CO)[C@H](O)[C@H](O)[C@H]2O)[C@@H]1O (stereo partly shown) ?
label 1

-TΔS >= 5 kcal/mol for O=C[C@H](O)[C@@H](O)[C@@H](O)[C@H](O)CO ?
label 0

-TΔS >= 5 kcal/mol for CO[C@H]1O[C@H](CO)[C@H](O)[C@H](O)[C@H]1O [αMeGalactoside] ?
label 1

-TΔS >= 5 kcal/mol for COC1OC(CO)C(O)C(O)C1O (stereo not drawn) [βMeGalactoside, β–Methyl-galactoside] ?
label 1

-TΔS >= 5 kcal/mol for CC(=O)N[C@H]1C(O)O[C@H](CO)[C@H](O)[C@@H]1O (mixture of isomers) ?
label 0

-TΔS >= 5 kcal/mol for CC(=O)N[C@H]1C(O)O[C@H](CO)[C@H](O)[C@@H]1O[C@@H]1O[C@H](CO)[C@H](O)[C@H](O)[C@H]1O (stereo partly shown) ?
label 0

-TΔS >= 5 kcal/mol for CC(=O)N[C@H]1[C@H](O[C@H]2[C@@H](O)[C@@H](CO)OC(O)[C@@H]2O)O[C@H](CO)[C@H](O)[C@@H]1O (stereo partly shown) ?
label 1

---

# Assayed Target: DiscI (Discoidin I, isoform A) (Dictyostelium discoideum, UniProt P02886, S2A)
# Experiment Notes: Isothermal titration microcalorimetry
# Assay type: binding
# Conditions Used: ITC
Endpoint: pKd
Expect pKd as a plain number equal to -log10 of the molar concentration.

Value of measured pKd for the entry CC(=O)N[C@H]1C(O)O[C@H](CO)[C@H](O)[C@@H]1O (mixture of isomers) [GalNAc, N-acetylgalactosamine] : 3.52

---

# Assayed Target: DiscI (Discoidin I, isoform A) (Dictyostelium discoideum, UniProt P02886, S2A)
# Experiment Notes: Isothermal titration microcalorimetry
# Assay type: binding
# Conditions Used: KD, ITC, 20 mM Tris-HCl pH 7.5, 150 mM NaCl, 25 °C, averaged over two or three experiments
Endpoint: Kd (mM)
Report the figure in mM without appending any unit label.

For O=C[C@H](O)[C@@H](O)[C@@H](O)[C@H](O)CO on DiscI (Discoidin I, isoform A) (Dictyostelium discoideum, UniProt P02886, S2A), measured Kd was 3.77

For CC(=O)N[C@H]1C(O)O[C@H](CO)[C@H](O)[C@@H]1O[C@@H]1O[C@H](CO)[C@H](O)[C@H](O)[C@H]1O (stereo partly shown) on DiscI (Discoidin I, isoform A) (Dictyostelium discoideum, UniProt P02886, S2A), measured Kd was 0.0272

For CC(=O)N[C@H]1C(O)O[C@H](CO)[C@@H](O[C@@H]2O[C@H](CO)[C@H](O)[C@H](O)[C@H]2O)[C@@H]1O (stereo partly shown) on DiscI (Discoidin I, isoform A) (Dictyostelium discoideum, UniProt P02886, S2A), measured Kd was 2.39

For CC(=O)N[C@H]1[C@H](O[C@H]2[C@@H](O)[C@@H](CO)OC(O)[C@@H]2O)O[C@H](CO)[C@H](O)[C@@H]1O (stereo partly shown) on DiscI (Discoidin I, isoform A) (Dictyostelium discoideum, UniProt P02886, S2A), measured Kd was 0.0494
